# assay: Leukocyte and erythrocyte counts in peripheral blood of mice with Krebs-2 carcinoma
# Type: in vivo
# experimental.context: Tpc 1 mg/kg i/p and/or 7 50 mg/kg i/p
reported.metric: Concentration of erythrocytes in peripheral blood (million/µL)
The reply should contain only the number, in million/µL.

compound="C/C(NCCCc1cc(C(C)(C)C)c(O)c(C(C)(C)C)c1)=C1\\C(=O)C=C2Oc3c(-c4csc(N/N=C/c5ccc(Br)cc5)n4)c(O)c(C)c(O)c3[C@@]2(C)C1=O [Compound 7]" meas_value=7

Any idea what Concentration of erythrocytes in peripheral blood was measured for CC[C@@]1(O)C(=O)OCc2c1cc1n(c2=O)Cc2cc3c(CN(C)C)c(O)ccc3nc2-1 [Tpc, topotecan] ? 7.6

---

# assay: Topotecan cytotoxicity with Tdp1 inhibitor (MTT), HEK293A
# Format: cell-based
# experimental.context: human, HEK293A cells (embryonic kidney, nontumor); topotecan alone or in the presence of 5 µM Tdp1 inhibitor
reported.metric: CC50 (nM)
Field format: number, assumed nM, no unit text.

Request the reported CC50 associated with CC[C@@]1(O)C(=O)OCc2c1cc1n(c2=O)Cc2cc3c(CN(C)C)c(O)ccc3nc2-1 33

---

Below, each entry is listed with its recorded CC50 at 72 h.
# assay: MTT cytotoxicity test, A-549
# Format: cell-based
# experimental.context: human, A-549 cells (lung cancer), read-out: semitoxic concentration (CC50), A-549
The response must be a number in µM with no trailing unit.

Can you look up the measured CC50 at 72 h of CC(=O)C1=C(O)C=C2Oc3c(-c4csc(N/N=C/c5ccc(Br)cc5)n4)c(O)c(C)c(O)c3[C@@]2(C)C1=O [Compound 4, reference compound] for me? 3.9

Queued: C/C(Nc1ccc(Br)cc1)=C1\C(=O)C=C2Oc3c(-c4csc(N/N=C/c5ccc(Br)cc5)n4)c(O)c(C)c(O)c3[C@@]2(C)C1=O 30

---

# assay: MTT cytotoxicity test, HEK293A
# Type: cell-based
# experimental.context: human, HEK293A cells (embryonic kidney, nontumor), read-out: semitoxic concentration (CC50), HEK293A
reported.metric: CC50 at 72 h (µM)
Report only the number, with the unit µM understood.

molecule=C/C(Nc1ccc(Br)cc1)=C1\C(=O)C=C2Oc3c(-c4csc(N/N=C/c5ccc(Br)cc5)n4)c(O)c(C)c(O)c3[C@@]2(C)C1=O reported_metric="CC50 at 72 h" meas_value=88

Consider the record given below.
CC50 at 72 h for CC(=O)C1=C(O)C=C2Oc3c(-c4csc(N/N=C/c5ccc(Br)cc5)n4)c(O)c(C)c(O)c3[C@@]2(C)C1=O [Compound 4, reference compound] ? 12

---

# assay: Topotecan cytotoxicity with Tdp1 inhibitor (MTT), MRC-5
# Assay type: cell-based
# experimental.context: human, MRC-5 cells (lung fibroblasts, nontumor); topotecan alone or in the presence of 5 µM Tdp1 inhibitor
reported.metric: CC50

Form field: reported CC50 of CC[C@@]1(O)C(=O)OCc2c1cc1n(c2=O)Cc2cc3c(CN(C)C)c(O)ccc3nc2-1 > 10 µM
